- Tested on: 855422-203-R-J1-PDC spheroids with HUVEC/MSC, viability
- ASSAY_REMARKS: Anticancer human tumor 855422-203-R-J1-PDC patient-derived bladder carcinoma cell line growth inhibition [PI3K]
- CONDITION_NOTES: second compound 0.1 µM; first compound 0.949 µM; stronger effect = lower value
ASSAY_METRIC: viability, T/C (%)
Give your result in % as a bare value.

Guide cases for viability, T/C, answers given:
Cn1cnc2c(F)c(Nc3ccc(Br)cc3Cl)c(C(=O)NOCCO)cc21 + Cc1nc(NC(=O)N2CCCC2C(N)=O)sc1-c1ccnc(C(C)(C)C(F)(F)F)c1; 79.4
Cn1cnc2c(F)c(Nc3ccc(Br)cc3Cl)c(C(=O)NOCCO)cc21 + CC(Nc1ccc2c(c1)OCCn1cc(N3C(=O)OCC3C(F)F)nc1-2)C(N)=O; 46
Cn1cnc2c(F)c(Nc3ccc(Br)cc3Cl)c(C(=O)NOCCO)cc21 + COc1c(OCCCN2CCOCC2)ccc2c3n(c(=NC(=O)c4cnc(N)nc4)nc12)CCN3; 10.2

Attention now shifts to the item below.
## Task Entry under review: Cn1cnc2c(F)c(Nc3ccc(Br)cc3Cl)c(C(=O)NOCCO)cc21 + CC(Nc1ncnc2nc[nH]c12)c1cc2cccc(Cl)c2c(=O)n1-c1ccccc1 . Reported viability, T/C?
## Result 90.5

* * *

# viability, T/C annotations
- Tested on: 855422-203-R-J1-PDC spheroids with HUVEC/MSC, viability
- ASSAY_REMARKS: Anticancer human tumor 855422-203-R-J1-PDC cell line growth inhibition [PI3K]
- CONDITION_NOTES: second compound 0.0316 µM; first compound 0.316 µM; stronger effect = lower value
Field: numeric (%). Do not append units.

Some compounds with known viability, T/C results, for comparison:
CC1(C)CCC(Nc2ncc(C(F)(F)F)c(-c3c[nH]c4c(P(C)(C)=O)c(C#N)ccc34)n2)CN1 (stereo not drawn) + COc1c(OCCCN2CCOCC2)ccc2c3n(c(=NC(=O)c4cnc(N)nc4)nc12)CCN3; 13.9
C#Cc1c(F)ccc2cc(O)cc(-c3ncc4c(N5CC6CCC(C5)N6)nc(OCC56CCCN5CC(F)C6)nc4c3F)c12 (stereo not drawn) + CC(Nc1ccc2c(c1)OCCn1cc(N3C(=O)OCC3C(F)F)nc1-2)C(N)=O; 89.9

Attention now turns to another entry.
## Task Reported viability, T/C, compound CC1(C)CCC(Nc2ncc(C(F)(F)F)c(-c3c[nH]c4c(P(C)(C)=O)c(C#N)ccc34)n2)CN1 (stereo not drawn) + Cc1nc(NC(=O)N2CCCC2C(N)=O)sc1-c1ccnc(C(C)(C)C(F)(F)F)c1 : ____
## Result 25.5

* * *

Consider the following molecules and their measured viability, T/C readings.
- Test system: 855422-203-R-J1-PDC spheroids with HUVEC/MSC, viability
- ASSAY_REMARKS: Anticancer human tumor 855422-203-R-J1-PDC cell line growth inhibition [PI3K];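 also: agents incubated with spheroids for one week before read-out; 100% = DMSO vehicle-treated control wells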
- CONDITION_NOTES: second compound 0.01 µM; first compound 0.1 µM; stronger effect = lower value
Respond with the bare value in %.

Sample records with viability, T/C:
Cn1ncc(Cl)c1-c1cc(C(=O)NC(CN)Cc2cccc(F)c2)sc1Cl (stereo not given) + CC(Nc1ccc2c(c1)OCCn1cc(N3C(=O)OCC3C(F)F)nc1-2)C(N)=O; 72.4
CCN1CCN(Cc2ccc(Nc3ncc(F)c(-c4cc(F)c5nc(C)n(C(C)C)c5c4)n3)nc2)CC1 + COc1c(OCCCN2CCOCC2)ccc2c3n(c(=NC(=O)c4cnc(N)nc4)nc12)CCN3; 71.1
CNC(=O)c1ccc(N2C(=S)N(c3ccc(C#N)c(C(F)(F)F)c3)C(=O)C2(C)C)cc1F + COc1c(OCCCN2CCOCC2)ccc2c3n(c(=NC(=O)c4cnc(N)nc4)nc12)CCN3; 85.1
C#Cc1c(F)ccc2cc(O)cc(-c3ncc4c(N5CC6CCC(C5)N6)nc(OCC56CCCN5CC(F)C6)nc4c3F)c12 (stereo not given) + CC(Nc1ccc2c(c1)OCCn1cc(N3C(=O)OCC3C(F)F)nc1-2)C(N)=O; 93

Here is the next item to consider.
## Task Please look up its viability, T/C: CC(=O)c1c(C)c2cnc(Nc3ccc(N4CCNCC4)cn3)nc2n(C2CCCC2)c1=O + COc1c(OCCCN2CCOCC2)ccc2c3n(c(=NC(=O)c4cnc(N)nc4)nc12)CCN3
## Result 56.5

* * *

Recorded viability, T/C for the following compounds
- System: 855422-203-R-J1-PDC spheroids with HUVEC/MSC, viability
- ASSAY_REMARKS: Anticancer human tumor 855422-203-R-J1-PDC cell line growth inhibition [PI3K];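 also: agents incubated with spheroids for one week before read-out; 100% = DMSO vehicle-treated control wells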
- CONDITION_NOTES: second compound 0.0316 µM; first compound 0.316 µM; stronger effect = lower value
# value in %; strip the unit string

Cn1ncc(Cl)c1-c1cc(C(=O)NC(CN)Cc2cccc(F)c2)sc1Cl (stereo not given) + COc1c(OCCCN2CCOCC2)ccc2c3n(c(=NC(=O)c4cnc(N)nc4)nc12)CCN3; 45.2
CNC(=O)c1ccc(N2C(=S)N(c3ccc(C#N)c(C(F)(F)F)c3)C(=O)C2(C)C)cc1F + CC(Nc1ncnc2nc[nH]c12)c1cc2cccc(Cl)c2c(=O)n1-c1ccccc1; 109
CNC(=O)c1ccc(N2C(=S)N(c3ccc(C#N)c(C(F)(F)F)c3)C(=O)C2(C)C)cc1F + COc1c(OCCCN2CCOCC2)ccc2c3n(c(=NC(=O)c4cnc(N)nc4)nc12)CCN3; 70.8
CCCS(=O)(=O)Nc1ccc(F)c(C(=O)c2c[nH]c3ncc(-c4ccc(Cl)cc4)cc23)c1F + Cc1nc(NC(=O)N2CCCC2C(N)=O)sc1-c1ccnc(C(C)(C)C(F)(F)F)c1; 109

The record that follows has no viability, T/C shown yet.
## Task Suppose we examine the compound CC(C)NCC(C(=O)N1CCN(c2ncnc3c2C(C)CC3O)CC1)c1ccc(Cl)cc1 (stereo not given) + CC(Nc1ccc2c(c1)OCCn1cc(N3C(=O)OCC3C(F)F)nc1-2)C(N)=O ; what viability, T/C value has been reported?
## Result 67.7

* * *

- Tested on: 855422-203-R-J1-PDC spheroids with HUVEC/MSC, viability
- ASSAY_REMARKS: Anticancer human tumor 855422-203-R-J1-PDC cell line growth inhibition [PI3K];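 also: agents incubated with spheroids for one week before read-out; 100% = DMSO vehicle-treated control wells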
- CONDITION_NOTES: second compound 0.316 µM; first compound 0.0316 µM; stronger effect = lower value
Define the label as Met when viability, T/C is strictly less than 90% and as Not met in all remaining cases.

Reference set (3 entries):
C[C@@H](NC(=O)c1ncnc(N)c1Cl)c1ncc(C(=O)Nc2cc(C(F)(F)F)c(Cl)cn2)s1 + CC(Nc1ncnc2nc[nH]c12)c1cc2cccc(Cl)c2c(=O)n1-c1ccccc1; Not met
CC1(C)CCC(CN2CCN(c3ccc(C(=O)NS(=O)(=O)c4ccc(NCC5CCOCC5)c([N+](=O)[O-])c4)c(Oc4cnc5[nH]ccc5c4)c3)CC2)=C(c2ccc(Cl)cc2)C1 + COc1c(OCCCN2CCOCC2)ccc2c3n(c(=NC(=O)c4cnc(N)nc4)nc12)CCN3; Met
C=CC(=O)N1CCN(c2nc(=O)n(-c3c(C)ccnc3C(C)C)c3nc(-c4c(O)cccc4F)c(F)cc23)C(C)C1 (configuration not stated) + Cc1nc(NC(=O)N2CCCC2C(N)=O)sc1-c1ccnc(C(C)(C)C(F)(F)F)c1; Not met

Note: attention shifts to another entry.
## Task Please indicate whether the reported viability, T/C of CC1(C)CCC(CN2CCN(c3ccc(C(=O)NS(=O)(=O)c4ccc(NCC5CCOCC5)c([N+](=O)[O-])c4)c(Oc4cnc5[nH]ccc5c4)c3)CC2)=C(c2ccc(Cl)cc2)C1 + CC(Nc1ccc2c(c1)OCCn1cc(N3C(=O)OCC3C(F)F)nc1-2)C(N)=O is strictly below 90%.
## Result Met

* * *

- Tested on: 855422-203-R-J1-PDC spheroids with HUVEC/MSC, viability
- ASSAY_REMARKS: Anticancer human tumor 855422-203-R-J1-PDC cell line growth inhibition [PI3K];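 also: agents incubated with spheroids for one week before read-out; 100% = DMSO vehicle-treated control wells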
- CONDITION_NOTES: second compound 0.0316 µM; first compound 0.1 µM; stronger effect = lower value
ASSAY_METRIC: viability, T/C (%)
The answer is to be given in %; state only the numeric part.

Sample records with viability, T/C:
Cn1ncnc1[C@H]1c2n[nH]c(=O)c3cc(F)cc(c23)N[C@@H]1c1ccc(F)cc1 + Cc1nc(NC(=O)N2CCCC2C(N)=O)sc1-c1ccnc(C(C)(C)C(F)(F)F)c1; 109
C[C@@H](NC(=O)c1ncnc(N)c1Cl)c1ncc(C(=O)Nc2cc(C(F)(F)F)c(Cl)cn2)s1 + CC(Nc1ncnc2nc[nH]c12)c1cc2cccc(Cl)c2c(=O)n1-c1ccccc1; 109
CC1(C)CCC(Nc2ncc(C(F)(F)F)c(-c3c[nH]c4c(P(C)(C)=O)c(C#N)ccc34)n2)CN1 (stereo not given) + COc1c(OCCCN2CCOCC2)ccc2c3n(c(=NC(=O)c4cnc(N)nc4)nc12)CCN3; 17.2

## Task What reported viability, T/C corresponds to CNC(=O)c1ccc(N2C(=S)N(c3ccc(C#N)c(C(F)(F)F)c3)C(=O)C2(C)C)cc1F + CC(Nc1ncnc2nc[nH]c12)c1cc2cccc(Cl)c2c(=O)n1-c1ccccc1 on 855422-203-R-J1-PDC spheroids with HUVEC/MSC, viability?
## Result 93

## Task // same read-out, input: Cn1nccc1Nc1nccc(-c2ccn(C(CO)c3ccc(Cl)c(F)c3)c(=O)c2)n1 (stereo not given) + COc1c(OCCCN2CCOCC2)ccc2c3n(c(=NC(=O)c4cnc(N)nc4)nc12)CCN3
## Result 59.8
